# System: Rattus norvegicus
# METHOD NOTES: Duration of action of 5 mg/kg intravenous dose of compound was determined in SHR test for antihypertensive activity in rats
# Type: functional
# key: entry, value: Duration of action
MEASUREMENT KIND: Duration of action

{"COMPOUND": "COc1ccccc1N1CCN(CC(O)C2=COc3ccccc3O2)CC1 (centres undefined)", "TEST RESULT": ">45 min"}
{"COMPOUND": "CC(C)NCC(O)C1=COc2ccccc2O1 (centres undefined)", "TEST RESULT": ">45 min"}
{"COMPOUND": "COc1ccc(CCNCC(O)C2=COc3ccccc3O2)cc1OC (centres undefined)", "TEST RESULT": ">25 min"}
{"COMPOUND": "Oc1nc2ccccc2n1C1CCN(CC(O)C2=COc3ccccc3O2)CC1 (centres undefined)", "TEST RESULT": ">25 min"}

====

# Test system: Rattus norvegicus
# METHOD NOTES: Change in diastolic blood pressure in anesthetized spontaneous hypertensive rats when 5 mg/kg of compound was administered intravenously
# Type: functional, Artery
# COND: route intravenous

{"COMPOUND": "CC(C)NCC(O)COc1cccc2ccccc12 (centres undefined) [PROPRANOLOL]", "Change in BP [%]": -64}
{"COMPOUND": "COc1ccccc1N1CCN(CC(O)C2=COc3ccccc3O2)CC1 (centres undefined)", "Change in BP [%]": -41}
{"COMPOUND": "Oc1nc2ccccc2n1C1CCN(CC(O)C2=COc3ccccc3O2)CC1 (centres undefined)", "Change in BP [%]": -43}
{"COMPOUND": "CC(C)NCC(O)C1=COc2ccccc2O1 (centres undefined)", "Change in BP [%]": -60}

Source listed as ChEMBL document CHEMBL1121687.
